test: qHTS assay to test for compound auto fluorescence at 535 nm (green) in HepG2 cells (AID 720675); conditions: green autofluorescence 485/535 nm, 1 h; series mostly up to 91.3 µM; also: % is scaled to controls: 0 for no effect and ±100 for the full control effect
Activity calls are given as the source filed them. Calls follow the shape of the dose curve; as a rule, active = well fitted curve in the direction sought with a large enough effect in the repeat runs; inconclusive = weak or mixed curves; inactive = flat fitted curve, though single readings scatter.
quantity: fluorescence, % of fluorescein control

1) O=C1c2c(O)ccc(O)c2C(=O)c2c(NCCNCCO)ccc(NCCNCCO)c21; -0.149% [at 18.6 µM] (inactive)
2) COC(=O)[C@]1(C)CCC[C@@]2(C)[C@H]1CC=C1C=C(C(C)C)CC[C@@H]12; inactive
3) C[C@@]12C(=O)OC(=O)[C@]1(C)C1CCC2O1; -0.0054% [at 18.6 µM] (inactive)
4) COC(=O)C1=C(C)NC(C)=C(C(=O)OCCCN2CCC(c3ccccc3)(c3ccccc3)CC2)C1c1cccc([N+](=O)[O-])c1 (stereo unspecified); inactive
5) CCC(C)c1cc([N+](=O)[O-])cc([N+](=O)[O-])c1OC(=O)OC(C)C (stereo unspecified); inactive
6) C=CCCCCCCC=C; inactive
7) O=C1OC(OC(=O)c2cccnc2Nc2cccc(C(F)(F)F)c2)c2ccccc21 (stereo unspecified); inactive
8) CSc1c(Cl)c(Cl)c(Cl)c(Cl)c1Cl; inactive
9) CCCCCCC(C)OC(=O)COc1nc(F)c(Cl)c(N)c1Cl (stereo unspecified); inactive
10) S=C(SSSSSSC(=S)N1CCCCC1)N1CCCCC1; -0.0182% [at 18.6 µM] (inactive)
11) CCCCCCCCCCOCC(O)CN (stereo unspecified); inactive

----------
assay: qHTS assay to identify small molecule antagonists of the peroxisome proliferator-activated receptor delta (PPARd) signaling pathway - cell viability counter screen (AID 743213); conditions: PPARd-bla HEK293H viability, CellTiter-Glo luminescence, 17 h; series mostly up to 62 µM; also: nearly all actives have a fitted effect of over 50% in size
Results filed as inconclusive are left out. The source made the active and inactive calls. The call rests on the fitted dose curve; in most records, active means well fitted cell-killing curve with a large enough effect in the repeat runs; inconclusive means weak or mixed curves; inactive means no such curve, though single readings can be large or run the other way.
Classes used: 1.0 = active, 0.0 = inactive

1) O[C@@H](c1cc(C(F)(F)F)nc2c(C(F)(F)F)cccc12)[C@H]1CCCCN1; 1.0
2) C[C@@]12C(=O)OC(=O)[C@]1(C)C1CCC2O1; 1.0
3) CCN(CC)c1ccc(N)cc1; 1.0
4) O=C1Nc2ccc(Cl)cc2[C@@](C#CC2CC2)(C(F)(F)F)O1; 0.0
5) CCCCOC(=O)C(C)CC (configuration not stated); 1.0
6) C1CC(COCC2CO2)CCC1COCC1CO1 (configuration not stated); 0.0
7) CCC1(c2cnc[nH]2)Cc2ccccc2C1; 0.0
8) CN1[C@@H]2CC[C@@H]1CC(OC(=O)C(CO)c1ccccc1)C2 (some centres not stated); 0.0
9) CCN=C1C=CC(=C(c2ccc(N(CC)CC)cc2)c2ccc(N(CC)CC)cc2)c2ccccc21; 1.0
10) CCN(CC)CCNc1ccc(CO)c2sc3ccccc3c(=O)c12; 1.0
11) NC(=O)c1ccccc1N; 0.0
12) O=C(O)CCCCCCC(=O)O; 0.0
13) CCCCCCCCCCCC(=O)N(CC)CC; 0.0
14) COC(=O)[C@]1(C)CCC[C@@]2(C)[C@H]1CC=C1C=C(C(C)C)CC[C@@H]12; 0.0
15) O=C1c2c(O)ccc([N+](=O)[O-])c2C(=O)c2c([N+](=O)[O-])ccc(O)c21; 1.0
16) C/C=C/C=N/NC(=O)c1ccncc1; 0.0
17) O=C(O)CC(=O)O; 0.0
18) O=S(=O)(O)CCCN1CCOCC1; 0.0
19) COc1cc(C(=O)NS(=O)(=O)c2ccccc2C)ccc1Cc1cn(C)c2ccc(NC(=O)OC3CCCC3)cc12; 0.0
20) Nc1ncnc2c1ncn2[C@@H]1O[C@H](COP(=O)(O)O)[C@@H](O)[C@H]1O; 1.0
21) O=C1NC2CCCCN2C12CCN(CCCN1c3ccccc3CCc3ccc(Cl)cc31)CC2 (configuration not stated); 1.0
22) CCCCCCOc1cc(C)c(O)c(C)c1C; 0.0
23) Nc1ccc2cc3ccc(N)cc3nc2c1; 0.0
24) CCOC(=O)C1=C(C)NC(C)=C(C(=O)OCC)C1c1ccccc1/C=C/C(=O)OC(C)(C)C; 1.0
25) O=C1OC(OC(=O)c2cccnc2Nc2cccc(C(F)(F)F)c2)c2ccccc21 (configuration not stated); 0.0
26) Cc1cccc(Br)c1; 0.0
27) O=C(O)Cc1ccc(OCCNC[C@H](O)c2ccccc2)cc1; 0.0
28) Cc1c(-c2ccc(O)cc2)n(Cc2ccc(OCCN3CCCCCC3)cc2)c2ccc(O)cc12; 1.0
29) CC(C)=C1CC[C@@H](C)CC1=O; 0.0
30) CCCCCCCC/C=C\CCCCCCCC(=O)OCCOC(=O)CCCCCCC/C=C\CCCCCCCC; 0.0
31) S=C(SSSSSSC(=S)N1CCCCC1)N1CCCCC1; 1.0
32) Cn1cnc2ncnc(N)c21; 0.0
33) O=C1C=CC(=O)N1c1ccccc1; 1.0
34) CCCCCCCCCCOCC(O)CN (configuration not stated); 1.0
35) CCOC(=O)[C@@](C)(N)Cc1ccc(O)c(O)c1; 0.0
36) NCCCCCCNCCCCCCN; 0.0
37) Clc1ccccc1CN1CCc2sccc2C1; 0.0
38) CCCCNc1c(C(=O)OCC)c(C)nc2c1cnn2CC; 0.0
39) CC1CCCCN1CCCOC(=O)c1ccc(OC2CCCCC2)cc1 (configuration not stated); 0.0
40) CC(O)C#CC(C)O (configuration not stated); 0.0
41) CCO[Si](CCCSSSSCCC[Si](OCC)(OCC)OCC)(OCC)OCC; 0.0
42) C(=C/c1ccccc1)/c1ccccc1; 0.0
43) CCCCCCCCCCCCN(CCO)CCO; 1.0
44) CCCCCCCCCCCCCCCC; 0.0
45) CCN(CC)CCOc1ccc(C(O)(Cc2ccc(Cl)cc2)c2ccc(C)cc2)cc1 (configuration not stated); 1.0
46) NC1(c2ccc(-c3nc4ccn5c(=O)[nH]nc5c4cc3-c3ccccc3)cc2)CCC1; 1.0
47) CC=O; 1.0
48) CCOC(=O)COc1ccc(C)cc1; 0.0
49) CCc1cccc(C)c1; 0.0
50) CCCCCCCC/C=C\CCCCCCCC(=O)NCc1ccc(O)c(OC)c1; 1.0
51) CCOC(=O)N1CCC(=C2c3ccc(Cl)cc3CCc3cccnc32)CC1; 1.0
52) CN(Cc1cc(Br)cc(Br)c1N)C1CCCCC1; 0.0

----------
Assay: qHTS assay to identify small molecule agonists of the androgen receptor (AR) signaling pathway in the presence of an antagonist - cell viability counter screen (AID 1259379); also: nearly all actives have a fitted effect of over 25% in size
Conditions: MDA-kb2 viability, CellTiter-Fluor, 16 h; series mostly up to 92.4 µM
From the text: National Center for Advancing Translational Sciences [NCATS] NIH Chemical Genomics Center [NCGC] U.S. Environmental Protection Agency [EPA] National Institutes of Environmental Health Sciences [NIEHS] National Toxicology Program [NTP] U.S. Food and Drug Administration [FDA] Androgen receptor (AR) is an important member of nuclear receptor family. Its signaling plays a critical role in AR-dependent prostate cancer and other androgen related diseases. […]
Results filed as inconclusive are left out. The source made the active and inactive calls. Calls follow the shape of the dose curve; as a rule, active = well fitted cell-killing curve with a large enough effect in the repeat runs; inconclusive = weak or mixed curves, or effect the other way; inactive = flat fitted curve, though single readings scatter.
Outcome codes: T (active), F (inactive)

1. CCOC(OCC)C(=O)c1ccccc1; F
2. CC(C(O)c1ccccc1)N(C)CCOC(c1ccccc1)c1ccccc1 (stereo not given); T
3. O=C(Nc1ccc(Cl)c(Cl)c1)c1cc(Cl)cc(Cl)c1O; T
4. CCN(CC)CCSC(=O)C(c1ccccc1)c1ccccc1; F
5. c1cc2c3c(c1)ccc1cccc(c13)C2; F
6. C[Si](C)O[Si](C)C; F
7. COc1cccc(CCc2ccccc2OCC(CN(C)C)OC(=O)CCC(=O)O)c1 (stereo not given); F
8. Cc1ccc(CCn2c3c(c4cc(Cl)ccc42)CN(C)CC3)cn1; F
9. Brc1ccccc1-c1ccccc1; F
10. NC1(c2ccc(-c3nc4ccn5c(=O)[nH]nc5c4cc3-c3ccccc3)cc2)CCC1; T
11. CN(Cc1cc(Br)cc(Br)c1N)C1CCCCC1; F
12. CCO[Si](C)(C)OCC; F
13. O=C[C@H](O)[C@H](O)[C@H](O)CO; F
14. CCC(C)(C)c1cc(O)c(C(C)(C)CC)cc1O; T
15. CCOC(=O)CN; F
16. COc1cccc(O)c1; F
17. C[C@@]12C(=O)OC(=O)[C@]1(C)C1CCC2O1; T
18. Cc1cccc(C)n1; F
19. CC(=O)O[C@@H]1C[C@@H]2CC[C@@]1(C)C2(C)C; F
20. CN(C)c1ccc(N=NS(=O)(=O)O)cc1; T

----------
assay: qHTS assay to identify small molecule antagonists of the estrogen related receptor (ERR) signaling pathway from Tox21 library - cell viability counter screen (AID 1224834); settings: ERR reporter cells viability, CellTiter-Fluor, 17.5 h; series mostly up to 92.4 µM; also: nearly all actives have a fitted effect of over 30% in size
Results filed as inconclusive are left out. Active and inactive are the calls of the source. The call rests on the fitted dose curve; in most records, active means well fitted cell-killing curve with a large enough effect in the repeat runs; inconclusive means weak or mixed curves; inactive means flat fitted curve, though single readings scatter.
Labels: Yes for active, No for inactive

1) COC(=O)NCCC[Si](OC)(OC)OC; No
2) CCCCCCCCCCCCCC[n+]1ccccc1; Yes
3) CC(=O)OC(OC(C)=O)c1ccc([N+](=O)[O-])o1; Yes
4) CC(C)CCOCCC(C)C; No
5) COC(=O)CC(C)CCC=C(C)C (centres undefined); No
6) CCOCN(C(=O)CS(=O)(=O)O)c1c(C)cccc1CC; No
7) O=C1NCCN1CCN1CCC(c2cn(-c3ccc(F)cc3)c3ccc(Cl)cc23)CC1; Yes
8) OCCCc1cccnc1; No
9) CN(Cc1cc(Br)cc(Br)c1N)C1CCCCC1; No
10) CCC1(c2cnc[nH]2)Cc2ccccc2C1; No
11) CCCCOC(=O)C(C)CC (centres undefined); No
12) c1cc[nH]c1; No
13) O=C1OC(OC(=O)c2cccnc2Nc2cccc(C(F)(F)F)c2)c2ccccc21 (centres undefined); No
14) CN1[C@@H]2CC[C@@H]1CC(OC(=O)C(CO)c1ccccc1)C2 (some centres undefined); No
